# Tested on: RARb homodimer (NR concentration 270 nM)
# measurement protocol: PBM binding z-score (relative to random genomic background probes); higher = stronger binding; sequences stand for … in GC…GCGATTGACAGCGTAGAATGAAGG
Label 0 (no) if PBM binding z-score falls below 5; label 1 (yes) in every other case.

TGAATAAGGTTATAAGATCAGGGAACGTTGCAAA; 0 (no)
TCTAGTTGGTCAAAGGTCACCCACTCGAAATGCG; 1 (yes)
TCTGTTAGTTGATTAGGGCAACCGAAACAGCGGA; 0 (no)
ATCTCTACGTAACAAGTTCAGTGAAAGAGAGGAC; 0 (no)
CCTGCTGGGCCACGAAAGGTCATTGATTCAGTGA; 0 (no)
CCTACTGGGGCAGAAAGGTTACCATACCATCCGG; 0 (no)

----------
Each item that follows carries a reported PBM binding z-score.
# Test system: PPARg:RXRa (NR concentration 180 nM, RXRa partner concentration 90 nM)
# measurement protocol: PBM binding z-score (relative to random genomic background probes); higher = stronger binding; sequences stand for … in GC…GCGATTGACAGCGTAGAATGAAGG
readout name: PBM binding z-score

TCTTGTAGATCAACAGGAGGTTAAGTAAGATCGA; -0.0593
GCATATAGGTAATACAAGGCGAAAGTCCGATTGT; 0.874
CGATCTAGGTCATTGACAGGACAGTGAATAGTAA; 6.86
CAAACTAGGTCACGAAAGGTCACAGTCGAATGAC; 10.1
CCTTACGGGTCAAGGCTATAGCACGGGTGGTACG; 3.91
ATCTCTGGGTAACAAGTTCAGTGAAAGAGAGGAC; 1.62
CAAACTAGGTCACAGAGGTCAAAGTACGTGCGTA; 10.3
CAAACTAGGTCAAAAGTCAAAGTCGAGCCAACCA; 11.9
ATCCCTAGGTAACCAAGTTCAGTGAATGCCGAAC; 0.276
CTCGAAAGGTCGCTTGAGGTGAGTATACGGATAA; 2.15
CCTACTGGGCCATAAAGGTCATTGATGCCGATAA; 4.32
CCTAGTTGGTCAGTAGGTCACACACCGGATATGA; 4.58

----------
The entries below come with measured PBM binding z-score values attached.
# Tested on: LXRa homodimer (NR concentration 270 nM)
# measurement protocol: PBM binding z-score (relative to random genomic background probes); higher = stronger binding; sequences stand for … in GC…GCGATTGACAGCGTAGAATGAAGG
readout name: PBM binding z-score

CGTCCAAGGTCAAAGGCCAGTGAAGAGATGACGG; 0.422
TCATATAGGTAATACAGTTGAAAGTCGGCATCTA; 0.63
CCTACTCGGCCAAAGGTCATTGATTCCAATGCTC; 4.99
CCTATTAGTTGACCATAAGGGCAACCAAAGCTCG; 0.675
ATCGAAAGGTCGACGAGGTGGGTATACACCGTTT; 0.14
CAGCCTAGGTCAGGGCCAGTATAGGAGGAACGTT; 0.0185
TGAATGAGGTTATAACATCAGGGAACGTTGCAAA; -0.281
AGTCAACGTTCAGGACGAGGTAACGTAAAGCACG; -0.628
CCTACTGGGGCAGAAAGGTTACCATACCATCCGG; 0.201
CCTCGGAGGAAAACAGGAGGTCAGAGCTGCCAGA; 1.63
TTACCAAGGTGATGGTCGTTGATCCCTCTGTAGA; -0.222
TCGAGTACGTTAGTCGGGGCATTCAGCCAACATA; -0.665
